pIC50: −log10 of the molar value.
measured_property: pIC50

Notebook: pull reported pIC50 for UniProtKB P53350, entry COc1cc(C(=O)N2CCC(N3CCN(C)CC3)CC2)ccc1Nc1ncc2c(n1)N(C)c1ccccc1C(=O)N2C [LRRK2-IN-1]
Sequence (P53350 whole entry): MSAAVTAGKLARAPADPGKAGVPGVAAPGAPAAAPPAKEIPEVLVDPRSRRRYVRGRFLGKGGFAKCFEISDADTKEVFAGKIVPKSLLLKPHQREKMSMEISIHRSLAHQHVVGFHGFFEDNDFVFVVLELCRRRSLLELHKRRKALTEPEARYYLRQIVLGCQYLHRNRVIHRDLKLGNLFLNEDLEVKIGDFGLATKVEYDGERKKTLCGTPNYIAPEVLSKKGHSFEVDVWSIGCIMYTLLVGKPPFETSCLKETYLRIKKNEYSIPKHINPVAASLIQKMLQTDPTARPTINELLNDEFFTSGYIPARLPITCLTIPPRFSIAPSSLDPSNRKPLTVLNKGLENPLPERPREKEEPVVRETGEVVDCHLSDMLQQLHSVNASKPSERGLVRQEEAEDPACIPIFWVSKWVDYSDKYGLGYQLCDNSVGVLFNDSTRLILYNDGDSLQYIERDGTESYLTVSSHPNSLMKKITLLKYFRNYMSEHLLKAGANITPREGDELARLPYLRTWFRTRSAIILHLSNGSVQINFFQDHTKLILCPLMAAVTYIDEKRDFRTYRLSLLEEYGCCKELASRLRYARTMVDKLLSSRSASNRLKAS
< 6.00

---

measured_property: IC50 (nM)
Numbers only here, please. The scale is nM.

Notebook: pull reported IC50 for DCLK2 (Homo sapiens), entry `COc1cc(C(=O)N2CCC(N3CCN(C)CC3)CC2)ccc1Nc1ncc2c(n1)N(C)c1ccccc1C(=O)N2C`
45

---

measured_property: IC50

Notebook: pull reported IC50 for AURKB (Homo sapiens, UniProt Q96GD4), entry `COc1cc(C(=O)N2CCC(N3CCN(C)CC3)CC2)ccc1Nc1ncc2c(n1)N(C)c1ccccc1C(=O)N2C`
> 1 µM
